biological target: UniProt:Q83883; assay: FRET protease assay (3CL protease), enzyme inhibition; type: biochemical; conditions: Table 2, carbamate prodrugs; read-out: IC50
Sequence (Q83883 1101-1281): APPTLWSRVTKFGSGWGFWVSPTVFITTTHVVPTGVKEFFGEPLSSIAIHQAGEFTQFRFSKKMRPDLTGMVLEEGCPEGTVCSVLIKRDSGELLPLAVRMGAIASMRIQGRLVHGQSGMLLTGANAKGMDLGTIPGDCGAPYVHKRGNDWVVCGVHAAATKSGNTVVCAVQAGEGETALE
Measured attribute: log10(IC50) (log10 of the value in nM)

# Compound, Measured attribute, Observed measurement
data = [
    ("COC(=O)C(C)NC(=O)OC([C@H](C[C@@H]1CCNC1=O)NC(=O)[C@H](CC1CCCCC1)NC(=O)OCc1ccccc1)S(=O)(=O)O (stereo partly drawn) [Compound 23]", "log10(IC50)", 4.01),
    ("COC(=O)C(C)NC(=O)OC([C@H](C[C@@H]1CCNC1=O)NC(=O)[C@H](CC(C)C)NC(=O)OCc1ccccc1)S(=O)(=O)O (stereo partly drawn) [Compound 19]", "log10(IC50)", 3.26),
    ("COC(=O)C(NC(=O)OC([C@H](C[C@@H]1CCNC1=O)NC(=O)[C@H](CC(C)C)NC(=O)OCc1ccccc1)S(=O)(=O)O)C(C)C (stereo partly drawn) [Compound 20]", "log10(IC50)", 3.40),
    ("COC(=O)C(NC(=O)OC([C@H](C[C@@H]1CCNC1=O)NC(=O)[C@H](CC1CCCCC1)NC(=O)OCc1cccc(Cl)c1)S(=O)(=O)O)C(C)C (stereo partly drawn) [Compound 22]", "log10(IC50)", 2.70),
    ("COC(=O)C(C)NC(=O)OC([C@H](C[C@@H]1CCNC1=O)NC(=O)[C@H](CC1CCCCC1)NC(=O)OCc1cccc(Cl)c1)S(=O)(=O)O (stereo partly drawn) [Compound 21]", "log10(IC50)", 2.90),
    ("COC(=O)CNC(=O)OC([C@H](C[C@@H]1CCNC1=O)NC(=O)[C@H](CC(C)C)NC(=O)OCc1ccccc1)S(=O)(=O)O (stereo partly drawn) [Compound 18]", "log10(IC50)", 3.49),
]
